target: human recombinant histamine H1 receptor (Homo sapiens, UniProt P35367); assay: Histamine H1 radioligand binding ([3H]Pyrilamine); settings: 0.1 μM; read-out: Binding data (Percentage Inhibition) Histamine Binding H1
Sequence (P35367 whole entry): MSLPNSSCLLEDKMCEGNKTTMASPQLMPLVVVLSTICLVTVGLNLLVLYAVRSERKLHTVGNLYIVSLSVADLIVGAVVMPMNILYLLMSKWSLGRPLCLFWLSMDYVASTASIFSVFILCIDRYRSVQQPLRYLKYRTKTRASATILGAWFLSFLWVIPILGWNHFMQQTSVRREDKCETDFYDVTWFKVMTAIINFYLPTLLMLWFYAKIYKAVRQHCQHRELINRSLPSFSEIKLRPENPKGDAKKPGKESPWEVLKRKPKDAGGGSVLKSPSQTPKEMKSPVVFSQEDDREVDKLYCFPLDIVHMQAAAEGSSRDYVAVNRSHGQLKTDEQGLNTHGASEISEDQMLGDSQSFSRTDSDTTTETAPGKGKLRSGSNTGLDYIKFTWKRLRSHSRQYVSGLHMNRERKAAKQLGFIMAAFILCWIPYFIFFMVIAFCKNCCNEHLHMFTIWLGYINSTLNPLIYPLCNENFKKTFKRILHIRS
test-readout: inhibition at 0.1 µM (%)
Numbers only, in %.

// each listed molecule needs a value for inhibition at 0.1 µM
1. Cc1ccc(CCn2c3c(c4cccnc42)CN2CCCC2C3)cn1 (stereo not shown)
2. C/C(=C\n1c2c(c3cc(C)ccc31)C1CCCN1CC2)c1ccc(C)nc1 (stereo not shown)
3. O=C(Cn1c2c(c3cccnc31)C1CCCN1CC2)N1CCCCC1 (stereo not shown)
4. Cc1ccc(CCn2c3c(c4cccnc42)C2CCCN2CC3)cn1 (stereo not shown)
5. Cc1cnc2c(c1)c1c(n2CCc2ccc(C)nc2)CCN2CCCC12 (stereo not shown)

Solution:
50
1
5
22
73

# per-item lookup of inhibition at 0.1 µM; items listed below
1. Cc1cnc2c(c1)c1c(n2CCc2ccc(C)nc2)CC2CCCN2C1 (stereo not shown)
2. O=C(Cn1c2c(c3cccnc31)CN1CCCC1C2)N1CCCCC1 (stereo not shown)

Solution:
96
6

----------
molecular target: human recombinant serotonin (5-Hydroxytryptamine) 5-HT6 receptor (Homo sapiens, UniProt P50406); construct: expressed in transfected cells; host or cells: human HeLa cells; test: Serotonin 5-HT6 radioligand binding ([3H]LSD); conditions: 0.1 μM ligand concentration
Sequence (P50406 whole entry): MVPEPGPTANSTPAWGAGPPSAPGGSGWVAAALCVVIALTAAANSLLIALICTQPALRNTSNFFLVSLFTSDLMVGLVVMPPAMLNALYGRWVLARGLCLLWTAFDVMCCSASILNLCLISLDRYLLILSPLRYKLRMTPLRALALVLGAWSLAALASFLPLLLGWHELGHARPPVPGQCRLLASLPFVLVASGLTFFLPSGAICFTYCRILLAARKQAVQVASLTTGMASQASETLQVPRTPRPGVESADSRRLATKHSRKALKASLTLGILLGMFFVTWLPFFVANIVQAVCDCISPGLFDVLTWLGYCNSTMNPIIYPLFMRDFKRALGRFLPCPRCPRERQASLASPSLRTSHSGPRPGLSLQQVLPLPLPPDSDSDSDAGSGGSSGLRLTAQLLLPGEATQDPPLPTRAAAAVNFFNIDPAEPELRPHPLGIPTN
test-readout: Percent Inhibition of ligand binding Serotonin 5-HT6 (%)
Answers are plain numbers, in %.

Recorded results for 4 compounds are shown here.
>  <compound>
Cc1cnc2c(c1)c1c(n2CCc2ccc(C(F)(F)F)nc2)CCN2CCCC12 (centres unmarked)

>  <value-unit>
%

>  <endpoint-value>
5

$$$$
>  <compound>
Cc1cnc2c(c1)c1c(n2CCc2ccc(C)nc2)CCN2CCCC12 (centres unmarked)

>  <value-unit>
%

>  <endpoint-value>
20

$$$$
>  <compound>
O=C(Cn1c2c(c3cccnc31)CN1CCCC1C2)N1CCCCC1 (centres unmarked)

>  <value-unit>
%

>  <endpoint-value>
−9

$$$$
>  <compound>
FC(F)(F)c1ccc(CCn2c3c(c4cccnc42)CN2CCCC2C3)cn1 (centres unmarked)

>  <value-unit>
%

>  <endpoint-value>
−5

$$$$

Okay, next one:
Exercise: Value lookup for Percent Inhibition of ligand binding Serotonin 5-HT6; key = Cc1cnc2c(c1)c1c(n2CCc2ccc(C)nc2)CC2CCCN2C1 (centres unmarked)
Solution: 34

----------
molecular target: human recombinant serotonin (5-Hydroxytryptamine) 5-HT2A receptor (Homo sapiens); construct: expressed in transfected cells; host or cells: Chinese hamster ovary (CHO-K1) cells; assay: Serotonin 5-HT2A radioligand binding ([3H]Ketanserin); details: 0.1 μM ligand concentration
Sequence (P28223 whole entry): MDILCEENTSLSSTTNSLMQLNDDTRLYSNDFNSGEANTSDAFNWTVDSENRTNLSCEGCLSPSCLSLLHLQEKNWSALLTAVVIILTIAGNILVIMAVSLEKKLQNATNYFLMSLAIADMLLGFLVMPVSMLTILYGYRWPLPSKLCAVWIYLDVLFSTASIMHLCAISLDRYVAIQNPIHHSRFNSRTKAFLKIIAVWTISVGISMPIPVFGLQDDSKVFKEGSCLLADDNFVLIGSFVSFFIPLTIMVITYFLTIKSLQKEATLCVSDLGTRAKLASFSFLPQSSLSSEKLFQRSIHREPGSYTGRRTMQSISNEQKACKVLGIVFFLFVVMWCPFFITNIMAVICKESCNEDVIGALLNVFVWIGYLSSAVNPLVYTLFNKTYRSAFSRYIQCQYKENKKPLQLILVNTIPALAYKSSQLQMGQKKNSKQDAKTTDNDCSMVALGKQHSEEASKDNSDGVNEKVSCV
Hi! Could you tag entries with Percent Inhibition of ligand binding Serotonin 5-HT2A below 20% as TRUE, and those at or above as FALSE? Much appreciated.

// below: answered compounds
>  <compound>
C/C(=C\n1c2c(c3cc(C)ccc31)C1CCCN1CC2)c1ccc(C)nc1 (stereo not drawn) [Compound 32]

>  <target-desc>
human recombinant serotonin (5-Hydroxytryptamine) 5-HT2A receptor (Homo sapiens)

>  <answer-label>
FALSE

$$$$
>  <compound>
Cc1ccc(CCn2c3c(c4cccnc42)CN2CCCC2C3)cn1 (stereo not drawn) [Compound 35]

>  <target-desc>
human recombinant serotonin (5-Hydroxytryptamine) 5-HT2A receptor (Homo sapiens)

>  <answer-label>
FALSE

$$$$
>  <compound>
FC(F)(F)c1ccc(CCn2c3c(c4cccnc42)C2CCCN2CC3)cn1 (stereo not drawn) [Compound 40]

>  <target-desc>
human recombinant serotonin (5-Hydroxytryptamine) 5-HT2A receptor (Homo sapiens)

>  <answer-label>
TRUE

$$$$
>  <compound>
Cc1cnc2c(c1)c1c(n2CCc2ccc(C(F)(F)F)nc2)CC2CCCN2C1 (stereo not drawn) [Compound 44]

>  <target-desc>
human recombinant serotonin (5-Hydroxytryptamine) 5-HT2A receptor (Homo sapiens)

>  <answer-label>
FALSE

$$$$
>  <compound>
Cc1cnc2c(c1)c1c(n2CCc2ccc(C)nc2)CC2CCCN2C1 (stereo not drawn) [Compound 36]

>  <target-desc>
human recombinant serotonin (5-Hydroxytryptamine) 5-HT2A receptor (Homo sapiens)

>  <answer-label>
FALSE

$$$$
>  <compound>
FC(F)(F)c1ccc(CCn2c3c(c4cccnc42)CN2CCCC2C3)cn1 (stereo not drawn) [Compound 39]

>  <target-desc>
human recombinant serotonin (5-Hydroxytryptamine) 5-HT2A receptor (Homo sapiens)

>  <answer-label>
FALSE

$$$$
>  <compound>
Cc1cnc2c(c1)c1c(n2CCc2ccc(C)nc2)CCN2CCCC12 (stereo not drawn) [Compound 33]

>  <target-desc>
human recombinant serotonin (5-Hydroxytryptamine) 5-HT2A receptor (Homo sapiens)

>  <answer-label>
FALSE

$$$$
>  <compound>
O=C(Cn1c2c(c3cccnc31)C1CCCN1CC2)N1CCCCC1 (stereo not drawn) [Compound 38]

>  <target-desc>
human recombinant serotonin (5-Hydroxytryptamine) 5-HT2A receptor (Homo sapiens)

>  <answer-label>
TRUE

$$$$

Now consider a different compound.
Exercise: Is 20% strictly greater than the compound's reported Percent Inhibition of ligand binding Serotonin 5-HT2A? compound: Cc1cnc2c(c1)c1c(n2CCc2ccc(C(F)(F)F)nc2)CCN2CCCC12 (stereo not drawn) [Compound 43]
Solution: TRUE

----------
Assign Percent Inhibition of ligand binding Serotonin 5-HT2A to each entry below.
molecular target: human recombinant serotonin (5-Hydroxytryptamine) 5-HT2A receptor (Homo sapiens); construct: expressed in transfected cells; host or cells: Chinese hamster ovary (CHO-K1) cells; assay: Serotonin 5-HT2A radioligand binding ([3H]Ketanserin); details: 0.1 μM ligand concentration
Numbers only, in %.

>  <compound>
Cc1ccc(CCn2c3c(c4cccnc42)C2CCCN2CC3)cn1 (centres unmarked)

>  <endpoint-value>
15

$$$$
>  <compound>
Cc1cnc2c(c1)c1c(n2CC(=O)N2CCCCC2)CCN2CCCC12 (centres unmarked)

>  <endpoint-value>
−2

$$$$
>  <compound>
CC(=Cn1c2c(c3cc(C)ccc31)C1CCCN1CC2)c1ccc(F)cc1 (stereo in doubt)

>  <endpoint-value>
87

$$$$
>  <compound>
O=C(Cn1c2c(c3cccnc31)CN1CCCC1C2)N1CCCCC1 (centres unmarked)

>  <endpoint-value>
33

$$$$

Exercise: Quick check: Percent Inhibition of ligand binding Serotonin 5-HT2A on human recombinant serotonin (5-Hydroxytryptamine) 5-HT2A receptor (Homo sapiens), item Cc1cnc2c(c1)c1c(n2CC(=O)N2CCCCC2)CC2CCCN2C1 (centres unmarked) ?
Solution: 1

----------
biological target: human recombinant serotonin (5-Hydroxytryptamine) 5-HT2C receptor (Homo sapiens, UniProt P28335); construct: expressed in transfected cells; host or cells: Chinese hamster ovary (CHO-K1) cells; test: Serotonin 5-HT2C radioligand binding ([3H]Mesulergine); settings: 1 μM ligand concentration
Sequence (P28335 33-458): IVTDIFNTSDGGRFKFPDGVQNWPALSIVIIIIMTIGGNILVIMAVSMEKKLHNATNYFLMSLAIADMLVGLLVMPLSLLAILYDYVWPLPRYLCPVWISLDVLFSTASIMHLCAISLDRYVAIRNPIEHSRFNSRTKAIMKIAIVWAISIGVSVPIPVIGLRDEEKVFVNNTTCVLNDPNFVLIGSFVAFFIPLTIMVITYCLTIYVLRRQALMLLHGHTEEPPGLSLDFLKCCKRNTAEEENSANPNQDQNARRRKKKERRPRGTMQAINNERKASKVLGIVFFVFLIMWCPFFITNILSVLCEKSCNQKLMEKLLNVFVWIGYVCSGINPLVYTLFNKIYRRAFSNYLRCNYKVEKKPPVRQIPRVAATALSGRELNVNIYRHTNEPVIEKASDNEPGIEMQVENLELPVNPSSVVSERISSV
Label MET when Percent Inhibition of ligand binding Serotonin 5-HT2C is strictly below 90%; otherwise label NOT MET.

Exercise: Find out if reported Percent Inhibition of ligand binding Serotonin 5-HT2C for CC(=Cn1c2c(c3cc(C)ccc31)CN1CCCC1C2)c1ccc(F)cc1 (stereo in doubt) is less than 90%
Solution: NOT MET

Exercise: Does Fc1ccc(CCn2c3c(c4cc(Cl)ccc42)CN2CCCC2C3)cc1 (stereo not drawn) have Percent Inhibition of ligand binding Serotonin 5-HT2C strictly under 90%?
Solution: MET

Exercise: Does the reported Percent Inhibition of ligand binding Serotonin 5-HT2C of CC(=Cn1c2c(c3cc(C)ccc31)C1CCCCN1CC2)c1ccc(F)cc1 (stereo in doubt) stay below 90%?
Solution: NOT MET

Exercise: Find out if reported Percent Inhibition of ligand binding Serotonin 5-HT2C for CC(=Cn1c2c(c3cc(C)ccc31)C1CCCN1CC2)c1ccc(F)cc1 (stereo in doubt) is less than 90%
Solution: NOT MET

Exercise: Is it true that Percent Inhibition of ligand binding Serotonin 5-HT2C reported for Fc1ccc(CCn2c3c(c4cc(Cl)ccc42)C2CCCN2CC3)cc1 (stereo not drawn) is less than 90%?
Solution: MET

----------
target: human recombinant histamine H2 receptor (Homo sapiens, UniProt P25021); construct: expressed in transfected cells; host or cells: Chinese hamster ovary (CHO) K1 cells; test: Histamine H2 radioligand binding (Aminopotentidine); conditions: read-out: Binding data (Percentage Inhibition) Histamine Binding H2
Sequence (P25021 whole entry): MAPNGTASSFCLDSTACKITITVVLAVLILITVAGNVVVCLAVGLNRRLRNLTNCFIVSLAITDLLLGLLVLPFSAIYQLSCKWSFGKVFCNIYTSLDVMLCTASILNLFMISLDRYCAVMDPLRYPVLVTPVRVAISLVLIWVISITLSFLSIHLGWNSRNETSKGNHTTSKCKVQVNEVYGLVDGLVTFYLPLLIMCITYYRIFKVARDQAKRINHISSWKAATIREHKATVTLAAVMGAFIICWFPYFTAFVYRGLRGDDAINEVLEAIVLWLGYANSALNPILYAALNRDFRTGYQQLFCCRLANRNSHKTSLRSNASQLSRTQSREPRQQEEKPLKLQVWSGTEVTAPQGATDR
test-readout: inhibition at 1 µM (%)
Answers are plain numbers, in %.

Reference set (5 entries):
>  <compound>
CC(=Cn1c2c(c3cc(C)ccc31)CN1CCCC1C2)c1ccc(F)cc1 (stereo in doubt)

>  <target-desc>
human recombinant histamine H2 receptor (Homo sapiens, UniProt P25021)

>  <inhibition at 1 µM (%)>
97

$$$$
>  <compound>
Fc1ccc(CCn2c3c(c4cc(Cl)ccc42)C2CCCN2CC3)cc1 (stereo not drawn)

>  <target-desc>
human recombinant histamine H2 receptor (Homo sapiens, UniProt P25021)

>  <inhibition at 1 µM (%)>
15

$$$$
>  <compound>
CC(=Cn1c2c(c3cc(C)ccc31)CN1CCCCC1C2)c1ccc(F)cc1 (stereo in doubt)

>  <target-desc>
human recombinant histamine H2 receptor (Homo sapiens, UniProt P25021)

>  <inhibition at 1 µM (%)>
97

$$$$
>  <compound>
CC(=Cn1c2c(c3cc(C)ccc31)C1CCCCN1CC2)c1ccc(F)cc1 (stereo in doubt)

>  <target-desc>
human recombinant histamine H2 receptor (Homo sapiens, UniProt P25021)

>  <inhibition at 1 µM (%)>
67

$$$$
>  <compound>
CC(=Cn1c2c(c3cc(C)ccc31)C1CCCN1CC2)c1ccc(F)cc1 (stereo in doubt)

>  <target-desc>
human recombinant histamine H2 receptor (Homo sapiens, UniProt P25021)

>  <inhibition at 1 µM (%)>
75

$$$$

Alright, here's another compound for you.
Exercise: Entry Fc1ccc(CCn2c3c(c4cc(Cl)ccc42)CN2CCCC2C3)cc1 (stereo not drawn) , system human recombinant histamine H2 receptor (Homo sapiens, UniProt P25021): what inhibition at 1 µM was measured?
Solution: 17

Origin of the recorded values: patent US9045482B2
